The origin of these recorded values is ChEMBL document CHEMBL3259745.

experimental-system: Bile acid receptor (Homo sapiens) (UniProt Q96RI1)
Sequence (whole entry): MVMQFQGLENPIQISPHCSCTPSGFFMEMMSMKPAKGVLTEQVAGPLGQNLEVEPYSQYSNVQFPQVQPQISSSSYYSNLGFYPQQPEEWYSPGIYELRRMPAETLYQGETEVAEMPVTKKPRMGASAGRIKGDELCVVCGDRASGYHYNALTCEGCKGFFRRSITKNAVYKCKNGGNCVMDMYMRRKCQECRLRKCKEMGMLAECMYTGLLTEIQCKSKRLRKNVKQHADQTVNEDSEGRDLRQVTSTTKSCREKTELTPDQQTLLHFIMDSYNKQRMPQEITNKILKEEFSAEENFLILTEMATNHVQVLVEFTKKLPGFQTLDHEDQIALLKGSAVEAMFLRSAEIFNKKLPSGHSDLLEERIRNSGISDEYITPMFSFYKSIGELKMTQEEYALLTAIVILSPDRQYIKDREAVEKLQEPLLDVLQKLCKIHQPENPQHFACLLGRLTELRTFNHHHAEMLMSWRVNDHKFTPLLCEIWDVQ
assay-overview: Inhibition of GW4064-induced transactivation of FXR (unknown origin) expressed in HEK293T cells at 40 uM after 16 hrs by beta-lactamase reporter gene assay relative to control
Assay type: cell-based
measurement-conditions: HEK-293T
measurement-label: inhibition (%)

structure-as-smiles | measurement-label | observed-value
Cc1ccc(NC(=O)c2cn(C(C)C)nc2-c2ccc(C(F)(F)F)cc2)cc1S(=O)(=O)N1CCOCC1 | inhibition | 100
Cc1ccc(-c2nn(-c3ccccc3)cc2C(=O)Nc2cccc(S(=O)(=O)N3CCOCC3)c2)cc1 | inhibition | 32.8
COCCc1nn(Cc2cccc(OC)c2)cc1C(=O)Nc1ccc(C)c(S(=O)(=O)N2CCOCC2)c1 | inhibition | 95.9
O=C(Nc1ccc(S(=O)(=O)N2CCOCC2)cc1)c1cn(-c2ccccc2)nc1-c1ccc(Cl)cc1 | inhibition | 20.6
